Below, each entry is listed alongside its reported interaction score.
- target: T1, 4H3066-AA
- T1 chain: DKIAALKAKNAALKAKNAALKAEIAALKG
- experiment.notes: two-hybrid library CCmax;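 further: natural log of median RNA to DNA barcode read ratio; higher means stronger binding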
- test.settings: mean of both orientations

These solved cases illustrate the format of a correct answer.
                                     binder       assay_metric  reported_result
0  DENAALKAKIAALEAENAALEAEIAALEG [4H1809-AA]  interaction score            0.194
1  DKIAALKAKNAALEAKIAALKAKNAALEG [4H2991-AA]  interaction score            -1.81
2  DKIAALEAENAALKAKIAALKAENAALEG [4H2283-AA]  interaction score            -1.63

Please give the measured interaction score for this binder: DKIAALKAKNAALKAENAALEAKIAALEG [4H3029-AA]
-1.01

Also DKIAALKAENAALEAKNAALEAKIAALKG [4H2742-AA] ?
1.72

Also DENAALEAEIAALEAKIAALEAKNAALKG [4H1064-AA] ?
-1.4

Also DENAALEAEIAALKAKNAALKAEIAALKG [4H1146-AA] ?
-1.53

Also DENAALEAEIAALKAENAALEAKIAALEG [4H1109-AA] ?
-0.41

Also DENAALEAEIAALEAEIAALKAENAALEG [4H1035-AA] ?
-0.363

Also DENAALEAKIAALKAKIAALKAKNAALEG [4H1391-AA] ?
-1.99
